Ref: patent US20220025010A1

- Experimental target: T1, human GIP receptor (human, UniProt P48546 22-466)
- T1 sequence (looked up): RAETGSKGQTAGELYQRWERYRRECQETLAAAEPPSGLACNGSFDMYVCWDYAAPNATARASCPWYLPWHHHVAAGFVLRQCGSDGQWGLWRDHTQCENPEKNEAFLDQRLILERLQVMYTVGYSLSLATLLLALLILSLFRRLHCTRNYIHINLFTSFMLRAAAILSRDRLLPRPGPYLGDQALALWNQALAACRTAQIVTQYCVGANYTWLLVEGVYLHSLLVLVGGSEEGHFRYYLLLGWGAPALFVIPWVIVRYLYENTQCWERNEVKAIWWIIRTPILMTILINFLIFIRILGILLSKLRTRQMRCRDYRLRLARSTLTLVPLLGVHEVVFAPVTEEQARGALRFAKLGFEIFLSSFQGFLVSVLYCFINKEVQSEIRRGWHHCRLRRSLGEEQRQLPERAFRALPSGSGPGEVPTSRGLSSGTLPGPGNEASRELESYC
- Procedure summary: cell-based or functional assay
*1 amine or outer side, *2 acyl side, *3 side chain or, on linkers, in order; H or OH if unused. Where no end group is shown, it is not given here. Side-chain parts run from the residue outwards. [ ]: non-standard residue; d: D form. The star is where a group is joined. C18 diacid = O=C(O)CCCCCCCCCCCCCCCCC(=O)*; C16 diacid = O=C(O)CCCCCCCCCCCCCCC(=O)*; γGlu = O=C(O)[C@H](CCC(=O)[*:2])N[*:1]; pGlu = O=C1CC[C@@H](C(=O)O)N1; AEEA = NCCOCCOCC(=O)O
Reported metric: CisBio cAMP antagonism % inhib (%)
Kindly answer with a numeric value in %, unit omitted.

Record excerpt, results attached:
[pGlu]GTFISDYSIAMDRIK([AEEA-AEEA-AEEA-γGlu-C18 diacid])QQDFVNWLLAQR-NH2 [AT382]
83
[pGlu]GTFISDYSIAMDRIK(C18 diacid)QQDFVNWLLAQR-NH2 [AT391]
95
TFISDYSIALDRIKQQDFVNWLLAQR-NH2 (not fully specified (residue 14); printed as TFISDYSIALDRIKQQDFVNWLLAQR-(AEEAc +γ-Glu)-C16-diacid/K18) [AT234]
66

We next turn to a different binder, shown below.
Q: If you can, please state the reported CisBio cAMP antagonism % inhib value of [pGlu]GTFISDYSIAMDRIK(C16 diacid)QQDFVNWLLAQR-NH2 [AT390] .
Ans: 81
